Reference source for all entries: patent US9951060B2

Reported values: muscarinic M3 receptor-positive allosteric modulator activity, 10 μM (-fold shift) for UniProt:P20309, one per item.
Sequence (P20309 whole entry): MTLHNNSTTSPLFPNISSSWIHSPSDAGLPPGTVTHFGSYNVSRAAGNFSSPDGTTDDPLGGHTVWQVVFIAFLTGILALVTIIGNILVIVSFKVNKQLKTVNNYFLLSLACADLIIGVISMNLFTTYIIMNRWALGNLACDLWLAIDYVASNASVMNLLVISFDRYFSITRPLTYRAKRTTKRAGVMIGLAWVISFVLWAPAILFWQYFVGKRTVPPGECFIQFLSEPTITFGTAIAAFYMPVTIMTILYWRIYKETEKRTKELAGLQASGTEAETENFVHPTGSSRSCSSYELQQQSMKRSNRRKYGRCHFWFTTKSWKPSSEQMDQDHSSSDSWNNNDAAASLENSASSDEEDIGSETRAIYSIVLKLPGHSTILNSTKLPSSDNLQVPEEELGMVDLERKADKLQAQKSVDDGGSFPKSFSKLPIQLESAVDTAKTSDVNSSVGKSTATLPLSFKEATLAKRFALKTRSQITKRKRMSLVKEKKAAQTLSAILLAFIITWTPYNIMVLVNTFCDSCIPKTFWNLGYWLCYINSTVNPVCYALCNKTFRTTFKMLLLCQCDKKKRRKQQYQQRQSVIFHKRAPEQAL

[[record]]
compound = "C[C@@H]1CC[C@@H](C)N1Cc1sc(NC(=O)c2cnc(N3CCN(CCC(=O)O)CC3)cn2)nc1-c1cc(F)cc(C(F)(F)F)c1 [Example 119]"
recorded_value = "503 -fold shift"

[[record]]
compound = "CCN(CC)Cc1sc(NC(=O)c2cnc(N3CCN(CCC(=O)O)CC3)cn2)nc1-c1cc(F)cc(C(F)(F)F)c1 [Example 109]"
recorded_value = "191 -fold shift"


Consider the compound shown here: C[C@@H]1CCCN1Cc1sc(NC(=O)c2cnc(N3CCN(CCC(=O)O)CC3)cn2)nc1-c1cc(Br)cc(C(F)(F)F)c1 [Example 27] What is its recorded muscarinic M3 receptor-positive allosteric modulator activity, 10 μM (-fold shift)?
330 -fold shift

----------
measured.on: human c-Mpl-introduced Ba/F3 cell (Homo sapiens)
Construct: expressed in transfected cells
Sequence (P40238 26-635): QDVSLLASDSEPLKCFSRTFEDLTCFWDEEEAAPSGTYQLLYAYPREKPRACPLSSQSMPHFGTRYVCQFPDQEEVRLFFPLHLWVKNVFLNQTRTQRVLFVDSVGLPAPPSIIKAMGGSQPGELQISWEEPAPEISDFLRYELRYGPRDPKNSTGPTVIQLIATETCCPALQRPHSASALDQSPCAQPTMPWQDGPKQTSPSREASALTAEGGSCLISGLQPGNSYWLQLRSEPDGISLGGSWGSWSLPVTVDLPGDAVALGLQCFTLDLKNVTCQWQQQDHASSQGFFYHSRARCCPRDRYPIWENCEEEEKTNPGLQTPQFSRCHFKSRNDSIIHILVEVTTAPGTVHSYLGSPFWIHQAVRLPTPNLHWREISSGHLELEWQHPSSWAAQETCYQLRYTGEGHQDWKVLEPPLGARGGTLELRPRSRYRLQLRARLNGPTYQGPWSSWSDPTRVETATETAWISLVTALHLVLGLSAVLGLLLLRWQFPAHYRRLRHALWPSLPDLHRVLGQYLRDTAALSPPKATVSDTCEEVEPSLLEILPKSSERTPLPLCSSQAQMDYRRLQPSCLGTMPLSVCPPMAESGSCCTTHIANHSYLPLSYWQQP
procedure.details: Test Example 2: human c-Mpl-introduced Ba/F3 cell proliferative activity
Assay type: cell-based
measurement.setup: concentration exhibiting 30% proliferation; 100% = positive control (Example 315 of Patent Document 1) at 1 μM
Method: Test Example 2: Evaluation of Human c-Mpl-Introduced Ba/F3 Cell Proliferative Activity The human c-Mpl-introduced Ba/F3 cell proliferation action was measured by the following method. As a positive control, 1-(5-{[4-(4-chlorothiophen-2-yl)-5-{[(2R)-2-methylpyrrolidin-1-yl]methyl}-1,3-thiazol-2-yl]carbamoyl}-3-fluoropyridin-2-yl)piperidine-4-carboxylic acid hydrochloride disclosed as Example 315 in Patent Document 1, represented by the formula (A1) above, was used. […]
So I've got a bunch of compounds here, and I need their human c-Mpl-introduced Ba/F3 cell proliferative activity EC30 values.

Illustrative cases are given below, each with its answer.
[[record]]
compound = "CC[C@@H]1CCCN1Cc1sc(NC(=O)c2cnc(N3CCN(CC(=O)O)CC3)cn2)nc1-c1cc(F)cc(C(F)(F)F)c1 [Example 62]"
recorded_value = ">10 µM"

[[record]]
compound = "Cc1cc(-c2nc(NC(=O)c3cnc(N4CCN(CC(=O)O)CC4)cn3)sc2CN2CCC[C@H]2C)cc(C(F)(F)F)c1 [Example 71]"
recorded_value = ">10 µM"

[[record]]
compound = "CCN(CC)Cc1sc(NC(=O)c2cnc(N3CCN(CCC(=O)O)CC3)cn2)nc1-c1cc(F)cc(C(F)(F)F)c1 [Example 109]"
recorded_value = ">10 µM"


Give one value of human c-Mpl-introduced Ba/F3 cell proliferative activity EC30 per listed compound.
1. C[C@@H]1CCCN1Cc1sc(NC(=O)c2cnc(N3CCN(CCC(=O)O)CC3)cn2)nc1-c1cc(Cl)cc(C(F)(F)F)c1 [Example 11]
2. CC[C@@H]1CCCN1Cc1sc(NC(=O)c2cnc(N3CCN(CCC(=O)O)CC3)cn2)nc1-c1cccc(C(F)(F)F)c1 [Example 65]

1. >10 µM
2. >10 µM
